The binders listed here are annotated with their Kd.
# target_or_system: T1, GFP-9S library array, motif 4 ND N98E;D124E (synthetic construct, N98E;D124E)
# T1 chain: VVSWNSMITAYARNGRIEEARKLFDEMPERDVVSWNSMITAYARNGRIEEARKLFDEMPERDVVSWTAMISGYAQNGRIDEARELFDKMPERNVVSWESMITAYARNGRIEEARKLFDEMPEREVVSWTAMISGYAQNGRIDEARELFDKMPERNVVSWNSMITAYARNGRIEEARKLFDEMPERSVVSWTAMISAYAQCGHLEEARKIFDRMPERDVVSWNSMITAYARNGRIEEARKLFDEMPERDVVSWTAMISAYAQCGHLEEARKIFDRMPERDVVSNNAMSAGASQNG
# assay_details: high-throughput RNA pulldown from lysate on Ni-NTA beads; HRP: 50 mM Tris pH 8, 150 mM NaCl, 1 mM beta-mercaptoethanol, 50 ug/ml BSA, 3 ug/ml yeast RNA, 0.5% heparin; ITC and FP: Tris pH 8, 200 mM KCl, 5% glycerol; MST: 50 mM Tris pH 8, 200 mM NaCl, 1 mM DTT, BSA, heparin, 0.05% Tween 20
# assay_context: tags: N-terminal His-eGFP; label: 5' IRDye 800CW
API: value field is a number in nM; no unit string.

[
  {
    "binder": "AUUAUACGUGA (ssRNA) [IR-rpoA-U]",
    "unit_label": "nM",
    "Kd": 675
  }
]

Query: Dear colleague, I am looking for the recorded Kd of the following binder: AUUAAACGUGA (ssRNA) [IR-rpoA-A]
Result: 387
